- TARGET_OR_SYSTEM: truncated, His-tagged human CYP17A1 (Homo sapiens, UniProt P05093, C22K/P23T/R20A/R21K)
- ASSAY: UV/vis spectral shift ligand binding assay

[
  {
    "SUBSTANCE_SMILES": "C[C@]12CC[C@H](O)CC1=CC[C@@H]1[C@@H]2CC[C@]2(C)C(c3cccnc3)=CC[C@@H]12",
    "TARGET_OR_SYSTEM": "truncated, His-tagged human CYP17A1 (Homo sapiens, UniProt P05093, C22K/P23T/R20A/R21K)",
    "Kd": "< 0.1 µM"
  },
  {
    "SUBSTANCE_SMILES": "CC(=O)[C@H]1CC[C@H]2[C@@H]3CCC4=CC(=O)CC[C@]4(C)[C@H]3CC[C@]12C",
    "TARGET_OR_SYSTEM": "truncated, His-tagged human CYP17A1 (Homo sapiens, UniProt P05093, C22K/P23T/R20A/R21K)",
    "Kd": "0.229 µM"
  },
  {
    "SUBSTANCE_SMILES": "C[C@]12CC[C@H](O)CC1=CC[C@@H]1[C@@H]2CC[C@]2(C)C(n3cnc4ccccc43)=CC[C@@H]12",
    "TARGET_OR_SYSTEM": "truncated, His-tagged human CYP17A1 (Homo sapiens, UniProt P05093, C22K/P23T/R20A/R21K)",
    "Kd": "< 0.1 µM"
  }
]

Values from paper PMC3271139
